Target: T1, soluble human FcRn (human, UniProt P55899 24-297; P61769 21-119, biotinylated (Sulfo-NHS-LC-Biotin) in the ELISA; amine-coupled to CM5 chip in SPR)
T1 construct: also called shFcRn; biotinylated shFcRn
Assay: ELISA, competitor human IgG
assay.metric: IC50 (nM)

Some solved entries appear below for comparison.
RFXTGHFGGLYPC (Pen at 3; disulfide; C-terminal amide) [Peptide No. 99] : 2000
RFXTGHFXLYPC (Pen at 3; X at 8 = 3-amino-N-1-carboxymethyl-2,3,4,5-tetrahydro-1H-[1]-benzazepine-2-one (drawing CHEM-US-00084); disulfide; C-terminal amide) [Peptide No. 181] : 1200

(A) RFXTGHFXLYPC (Pen at 3; X at 8 = 3-amino-N-1-carboxymethyl-2,3,4,5-tetrahydro-1H-[1]-benzazepine-2-one (drawing CHEM-US-00083); disulfide; C-terminal amide) [Peptide No. 80 (as printed in Table 18)]
(B) RFXTGHFXLYPC (Pen at 3; X at 8 = 3-amino-2-oxo-1-piperidine-acetic acid (drawing CHEM-US-00080); disulfide; C-terminal amide) [Peptide No. 178]
Between these two entries, A and B , state which has the higher IC50. Pick one and reply with its label.
A

(A) RFXTGHFXLYPC (Pen at 3; X at 8 = 3(S)-3-amino-2-oxo-1-azepine acetic acid; disulfide; C-terminal amide) [Peptide No. 205]
(B) RFXTGHFXLYPC (Pen at 3; X at 8 = 3-amino-2-oxo-1-piperidine-acetic acid (drawing CHEM-US-00081); disulfide; C-terminal amide) [Peptide No. 179]
From the items above, decide which of A and B has the lower IC50 reading. Pick one and reply with its label.
A
